Listing of recorded solubility at 24 h by entry.
- Assay protocol: ADME solubility determination at pH 2.0 and pH 7.4
- Format: physicochemical
- Assay context: aqueous buffer, thermodynamic from solid; PBS pH 7.4, shaken at 25° C. for 24 hours, LC-MS/MS; read-out: Solubility at pH 7.4

In the examples that follow, each entry is paired with its recorded solubility at 24 h.
solubility at 24 h measured on COc1ncnc(C2CC2)c1-c1ncc2cnn(Cc3ccc(-c4nc(C(F)(F)F)cn4C4CCOC4)cc3)c2n1 (centres unmarked) = > 10 µM

solubility at 24 h measured on "CCn1cc(C(F)(F)F)nc1-c1ccc([C@H](C)n2ncc3cnc(-c4c(OC)ncnc4C(C)C)nc32)cc1F" = < 10 µM

solubility at 24 h measured on "COc1ncnc(C2CC2)c1-c1ncc2cnn([C@@H]3CCc4cc(-c5nc(C(F)(F)F)cn5C(C)C)ccc43)c2n1" = < 10 µM

Next:
solubility at 24 h measured on "CCn1cc(C(F)(F)F)nc1-c1ccc([C@H](C)n2ncc3cnc(-c4c(OC)ncnc4C4CC4)nc32)cc1F" = < 10 µM

solubility at 24 h measured on "COc1ncnc(C2CC2)c1-c1ncc2cnn([C@H](C)c3ccc(-c4nc(C(F)(F)F)cn4C(C)C)cc3)c2n1" = > 10 µM

solubility at 24 h measured on "Cn1cc(C(F)(F)F)nc1-c1ccc(Cn2ncc3cnc(-c4ccccc4S(C)(=O)=O)nc32)cc1" = < 10 µM

solubility at 24 h measured on "CCn1cc(C(F)(F)F)nc1-c1ccc(Cn2ncc3cnc(-c4c(OC)ncnc4OC)nc32)cc1" = > 10 µM

solubility at 24 h measured on "COc1ncnc(C2(C)CC2)c1-c1ncc2cnn(Cc3ccc(-c4nc(C(F)(F)F)cn4C)cc3)c2n1" = > 10 µM

---

- Assay protocol: Liver microsomal stability, human liver microsomes
- Assay type: in vitro ADME
- Assay context: 1 μM compound, NADPH, read-out: t1/2 (min) in HLM
Listing of recorded half-life at 1 μM by entry.

In the examples that follow, each entry is paired with its recorded half-life at 1 μM.
half-life at 1 μM measured on "CCn1cc(C(F)(F)F)nc1-c1ccc(Cn2ncc3cnc(-c4c(OC)ncnc4C4CC4)nc32)cc1OC" = > 25 min

half-life at 1 μM measured on "CCn1c(-c2ccc(Cn3ncc4cnc(-c5c(OC)ncnc5C5CC5)nc43)cc2)nc(C(F)(F)F)c1C" = < 25 min

Next:
half-life at 1 μM measured on "COc1ncnc(C2CC2)c1-c1ncc2cnn(Cc3ccc(-c4nc(C(F)(F)F)n(C)n4)cc3)c2n1" = > 25 min
